System: NCI-H23 lung
experimentSummary: NCI tumour cell line growth inhibition, 48 h
Reported TGI values follow for various molecules

Answered cases to consult:
>  <molecule>
CCOC(=O)N1CCN(Cc2cc(=O)n3ccc(C)cc3n2)CC1

>  <target>
NCI-H23 lung

>  <measurementKind>
TGI

>  <result>
> 100 µM

$$$$
>  <molecule>
COc1ccc(-n2c(C)nc3ccc(NC(=S)Nc4ccccc4)cc3c2=O)cc1

>  <target>
NCI-H23 lung

>  <measurementKind>
TGI

>  <result>
> 100 µM

$$$$

input: Using known records, supply TGI for Nn1c(-c2ccccc2)n[nH]c1=O
output: > 100 µM

input: Using known records, supply TGI for COc1cccc(C2SC(N)=Nc3c2c(C)nn3C(=O)c2ccccc2O)c1 (stereo not given)
output: > 10 µM

input: Using known records, supply TGI for CC(=O)N1C(C(=O)NC2CCCCC2)CSC1c1ccccc1 (stereo not given)
output: > 100 µM

// provenance: PubChem BioAssay (NCI)
